Tested on: c-Myc
Assay: c-Myc immunofluorescence assay
Type: cell-based, human
Conditions: A549 cells, 24 hours treatment, anti-c-Myc immunofluorescence
measured attribute: Myc Efficacy (−LogEC50)

> print(dat)
                                   molecule       measured.attribute             result
1  NCc1ccc(-c2cn3c(n2)sc2cc(C(=O)NCCCN4CCCCC4)ccc23)cc1C(F)(F)F  Myc Efficacy (−LogEC50)       +++ (+++ ≥6)
2  CNC(=O)c1ccc(-c2cn3c(n2)sc2cc(C(=O)N[C@H]4CCNC4)ccc23)cc1  Myc Efficacy (−LogEC50)    + (+ >3 and <5)
3  Cc1cccc(-c2cn3c(n2)sc2cc(C(=O)N[C@H]4C[C@@H](N5CCCCC5)C4)ccc23)c1  Myc Efficacy (−LogEC50)  ++ (++ ≥5 and <6)
4  CCN(CC)CCCNC(=O)c1ccc2c(c1)sc1nc(-c3ccc(CN)cc3F)cn12  Myc Efficacy (−LogEC50)       +++ (+++ ≥6)
5  O=C(NCCCN1CCCCC1)c1ccc2c(c1)sc1nc(-c3ccc(C4COC4)cc3)cn12  Myc Efficacy (−LogEC50)  ++ (++ ≥5 and <6)
6  CNC(=O)c1ccc2c(c1)sc1nc(-c3ccc([C@H]4C[C@H](O)CN4)cc3F)cn12 (relative stereo)  Myc Efficacy (−LogEC50)       +++ (+++ ≥6)
7  CNC(=O)c1ccc(-c2cn3c(n2)sc2cc(C(=O)NC4CCN(C(=O)C5CC5)CC4)ccc23)cc1  Myc Efficacy (−LogEC50)    + (+ >3 and <5)

* * *

Test system: c-Myc
Test: c-Myc immunofluorescence assay
Assay type: cell-based, human
Details: A549 cells, 24 hours treatment, anti-c-Myc immunofluorescence
Where a name gives a salt, the structure may show the parent alone.
measured attribute: Myc Efficacy (−LogEC50)

> print(dat)
                                    compound             result
 1  CCN(CC)CCCNC(=O)c1ccc2c(c1)sc1nc(-c3cccc(C#N)c3)cn12  ++ (++ ≥5 and <6)
 2  CNC(=O)c1ccc(-c2cn3c(n2)sc2cc(C(=O)NC4(CN)CCC4)ccc23)cc1    + (+ >3 and <5)
 3  CCN(CC)CCCNC(=O)c1ccc2c(c1)sc1nc(-c3ccc(-c4ncc[nH]4)cc3)cn12    + (+ >3 and <5)
 4  CN1CCC(NC(=O)c2ccc3c(c2)sc2nc(-c4ccc([C@H]5CCCN5)cc4F)cn23)CC1 [Compound 503R]       +++ (+++ ≥6)
 5  CCc1nccn1CCNC(=O)c1ccc2c(c1)sc1nc(-c3ccc(C(=O)NC)cc3)cn12    + (+ >3 and <5)
 6  CNC(=O)c1ccc(-c2cn3c(n2)sc2cc(C(=O)NCC(C)OC)ccc23)cc1 (stereo not shown)    + (+ >3 and <5)
 7  NCc1ccc(-c2nc3sc4cc(C(=O)NCCCN5CCCCC5)ccc4n3n2)c(F)c1       +++ (+++ ≥6)
 8  Cc1cccc(-c2cn3c(n2)sc2cc(C(=O)NCCC(=O)N4CCCC4)ccc23)c1    + (+ >3 and <5)
 9  CN1CCC(NC(=O)c2ccc3c(c2)sc2nc(-c4ccc(C5(F)CCNCC5)cc4F)cn23)CC1       +++ (+++ ≥6)
10  O=C(NCCCN1CCCCC1)c1ccc2c(c1)sc1nc(-c3ccc(CNC4CC4)cc3)nn12       +++ (+++ ≥6)
11  O=C(NCCCN1CCCCC1)c1ccc2c(c1)sc1nc(-c3ccc([C@@H]4CCCN4)cc3)cn12       +++ (+++ ≥6)
12  CNC(=O)c1ccc(-c2nc3sc4cc(C(=O)NCCCN5CCC(F)CC5)ccc4n3n2)c(F)c1  ++ (++ ≥5 and <6)
13  Cc1cccc(-c2cn3c(n2)sc2cc(C(=O)NCCCN4CCS(=O)(=O)CC4)ccc23)c1    + (+ >3 and <5)
14  O=C(NCCCN1CCC(F)CC1)c1ccc2c(c1)sc1nc(-c3ccc(-c4nc[nH]n4)cc3F)cn12       +++ (+++ ≥6)
15  CCN(CC)CCCC(=O)Nc1ccc2c(c1)sc1nc(-c3ccc(C(=O)NC)cc3F)cn12  ++ (++ ≥5 and <6)
16  CCN(CC)CCCNC(=O)c1ccc2c(c1)sc1nc(-c3ccc(CNCCOC)cc3)cn12       +++ (+++ ≥6)
17  CNC(=O)c1ccc(-c2cn3c(n2)sc2cc(C(=O)NC4CC(C)C4)ccc23)cc1 (stereo not shown)  ++ (++ ≥5 and <6)
18  CNC(=O)c1ccc(-c2cn3c(n2)sc2cc(C(=O)NCC4(C)CCOC4)ccc23)cc1 (stereo not shown)    + (+ >3 and <5)
19  CNC(=O)c1ccc(-c2cn3c(n2)sc2cc(C(=O)N(C)CCCN4CCCCC4)ccc23)cc1    + (+ >3 and <5)
20  O=C(NCCCN1CCC(F)CC1)c1cc2sc3nc(-c4ccc(C5CCCN5)cc4F)cn3c2cn1 (stereo not shown)       +++ (+++ ≥6)
21  CNC(=O)c1ccc(-c2cn3c(n2)sc2cc(C(=O)NC[C@H]4CCCN(C)C4)ccc23)cc1    + (+ >3 and <5)
22  CN1CCC(C(=O)Nc2ccc3c(c2)sc2nc(-c4ccc(C5CCCN5)cc4F)cn23)CC1 (stereo not shown) [Compound 593, dihydrochloride]       +++ (+++ ≥6)
23  CNC(=O)c1ccc(-c2cn3c(n2)sc2cc(C(=O)N[C@H]4C[C@H](NC)C4)ccc23)cc1           − (− ≤3)
24  CCN(CC)CCCNC(=O)c1ccc2c(c1)sc1nc(-c3cccc(C)c3)cn12       +++ (+++ ≥6)
25  CC(=O)NCCCNC(=O)c1ccc2c(c1)sc1nc(-c3ccc(C)cc3)cn12           − (− ≤3)
26  CNC(=O)c1ccc(-c2cn3c(n2)sc2cc(C(=O)N[C@H]4C[C@@H](OC)C4)ccc23)cc1           − (− ≤3)
27  NCc1ccc(-c2cn3c(n2)sc2cc(C(=O)NCCCN4CCCCC4)ccc23)c(C(F)F)c1  ++ (++ ≥5 and <6)
28  CCN(CC)CCCNC(=O)c1ccc2c(c1)sc1nc(-c3ccc(C(=O)NC)cc3F)cn12       +++ (+++ ≥6)
29  Cc1ccc(-c2cn3c(n2)sc2cc(C(=O)NCCCN)ccc23)cc1    + (+ >3 and <5)
30  C#CCCC1(CCN2CC[C@@H](CNC(=O)c3ccc4c(c3)sc3nc(-c5ccc(C)cc5)cn34)C2)N=N1  ++ (++ ≥5 and <6)
31  CCNCCCNC(=O)c1ccc2c(c1)sc1nc(-c3ccc(C(=O)NC)cc3F)cn12  ++ (++ ≥5 and <6)
